test system: SK-MEL-5 melanoma; test: NCI-60 one-dose screen, 48 h; conditions: 10 µM unless noted
The panel holds about 83,000 compounds, 20% with a hit somewhere; the sample as a whole holds those more often. Activity calls are given as the source filed them. The calls were made as follows: active = growth percent below 10; inactive = the rest.
Give one outcome, nothing more. List: yes (1) for active, no (0) for inactive

Molecule: c1ccc(-c2nc3sc(C(c4ccccc4)c4ccccc4)nn3c2-c2ccccc2)cc1
Assigned Category: no (0)

Molecule: CCOc1ccc(NC(=O)Nc2cc(C(C)C)ccc2C)cc1
Assigned Category: no (0)

Molecule: Cc1ccc2c(c1)Nc1ccc(C)cc1C2(C)C
Assigned Category: no (0)

Molecule: CCn1cc(C(=O)O)c(=O)c2cc(F)c(N3CCN(CC(=O)Nc4ccc(C(C)=O)cc4)CC3)cc21
Assigned Category: no (0)

Note: attention shifts to another entry.
*Q* Status in this test for CN1CCN(CC(O)COc2c(Br)c(Br)c(Br)c3c2OC(C)(C)C3)CC1 (stereo not given) ?
*A* yes (1)

* * *

Listed here: items and their measured growth.
tested on: ACHN renal; experiment: NCI-60 one-dose screen, 48 h (100 = growth as untreated, 0 = no growth, -100 = all killed); details: 10 µM unless noted
Compounds without any hit were thinned out: in the full panel of roughly 83,000, 20% have a hit.
# value in %; strip the unit string

*Q* Would you mind telling me what growth value was observed for O=C(Nc1ccccc1F)Nc1ccccc1Cl ?
*A* 90.8

*Q* # repeat for CNC(=O)NN
*A* 88.9

*Q* # repeat for O=C(N/N=C1\SCC(=O)N1c1ccccc1)c1cc(-c2cc3ccccc3o2)nn1-c1ccccc1
*A* 91

* * *

system: SK-MEL-5 melanoma; test: NCI-60 one-dose screen, 48 h (100 = growth as untreated, 0 = no growth, -100 = all killed); conditions: 10 µM unless noted
About 83,000 compounds went through this panel and 20% of them were active in at least one assay; those are over-represented in the sample as a whole.
Listed here: items and their measured growth.
# value in %; strip the unit string

Illustrative cases are given below, each with its answer.
Compound: COC(=O)/C=C/C(=O)c1cc(C)cc(C)c1O
growth / %: 104
--
Compound: Cc1cn(C2CC(N=[N+]=[N-])C(COP(=O)(O)OP(=O)(O)OP(=O)(O)O)O2)c(=O)[nH]c1=O (stereo not drawn)
growth / %: 106
--
Compound: Cc1cccc(Cc2cnc(NC(=O)CCc3ccc(C)o3)s2)c1
growth / %: -11.7
--
Compound: O=C1OC(c2ccc(-c3ccccc3)cc2)=C/C1=C/C=C/c1ccccc1
growth / %: 106
--
Compound: C=CCn1c(SCC(=O)Nc2ccc(C(=O)/C=C/c3cc(OC)c(OC)c(OC)c3)cc2)nnc1-c1ccc(OC)cc1
growth / %: 1.15

Now turn to the next compound.
*Q* Would you mind telling me what growth value was observed for c1cncc(-c2nc3ccccc3[nH]2)c1 ?
*A* 90.8

* * *

Listed here: items and their measured growth.
system: KM12 colon; assay: NCI-60 one-dose screen, 48 h (100 = growth as untreated, 0 = no growth, -100 = all killed); conditions: 10 µM unless noted
Compounds without any hit were thinned out: in the full panel of roughly 83,000, 20% have a hit.
# value in %; strip the unit string

Compound: CC(Cc1cccc(C(F)(F)F)c1)NCCOC(=O)c1ccccc1 (stereo not given)
growth / %: 114

*Q* Would you mind telling me what growth value was observed for OC[C@@H](O)C(O[C@@H]1O[C@H](CO)[C@H](O)[C@H](O)[C@H]1O)[C@H](O)[C@@H](O)CO (stereo not given in full) ?
*A* 103

*Q* # repeat for Nc1nc(-c2cc3c(cc2Cl)NC(=O)/C3=C/c2ccc(Cl)cc2)cs1
*A* 36

* * *

tested on: SK-OV-3 ovarian; assay: NCI-60 one-dose screen, 48 h (100 = growth as untreated, 0 = no growth, -100 = all killed); settings: 10 µM unless noted
Compounds without any hit were thinned out: in the full panel of roughly 83,000, 20% have a hit.
Listed here: items and their measured growth.
# value in %; strip the unit string

Molecule: CC(C)NCC(O)COc1ccc(CC(N)=O)cc1 (centres undefined)
Observed Result: 103
--
Molecule: O=C1OC(c2ccc(-c3ccccc3)cc2)=C/C1=C/C=C/c1ccccc1
Observed Result: 102

*Q* Would you mind telling me what growth value was observed for Cc1nccc2c3ccc(OCc4cn(Cc5ccc(Br)cc5)nn4)cc3n(CCCc3ccccc3)c12 ?
*A* 81.6

*Q* # repeat for COc1cc(Br)c(-c2nc(-c3ccccc3)c(-c3ccccc3)n2Cc2ccccc2)cc1OC
*A* 39.5

* * *

System: SNB-75 CNS
Assay: NCI-60 one-dose screen, 48 h (100 = growth as untreated, 0 = no growth, -100 = all killed)
Details: 10 µM unless noted
Experimental: Growth inhibition of the SNB-75 human tumor cell line is measured as a screen for anti-cancer activity. Cells are grown in 96 well plates and exposed to the test compound for 48 hours. Compounds are tested at a single concentration, which is 10^-5 M for most compounds. The reported endpoint is percent growth (GI% or GIPRCNT), where numbers from 0 - 100% represent growth inhibition, and numbers from -100% - 0 represent cell death. For example, a value of 40 represents 60% growth inhibition. […]
About 83,000 compounds went through this panel and 20% of them were active in at least one assay; those are over-represented in the sample as a whole.
We use 50% as the dividing line for growth: on or above the line is rule met, below is rule not met.

*Q* Check if growth >= 50% (inclusive). Item: C[C@@H]1CC2C3C[C@H](F)C4=CC(=O)C=C[C@]4(C)[C@@]3(F)[C@@H](O)C[C@]2(C)[C@@]1(O)C(=O)CO (stereo not given in full)
*A* rule met

*Q* # repeat for c1nc(SC2=NCCN2)c2[nH]cnc2n1
*A* rule met

*Q* # repeat for COc1ccc(-c2[nH]c3ccccc3c2/C=C(\C#N)S(=O)(=O)c2ccccc2)cc1
*A* rule not met

*Q* # repeat for N#CC1=C(N)Oc2c(ccc3ccccc23)C1c1cc(=O)oc2ccc(Cl)cc12 (stereo not given)
*A* rule not met

*Q* # repeat for O=C(NCCNc1nccc(-c2c(-c3cccc(O)c3)nc3sccn23)n1)c1cc(N2CCOCC2)cc(C(F)(F)F)c1
*A* rule met

* * *

system: SF-539 CNS; assay: NCI-60 one-dose screen, 48 h; details: 10 µM unless noted
Compounds without any hit were thinned out: in the full panel of roughly 83,000, 20% have a hit. The source made the active and inactive calls. How the source made its calls: active means growth percent below 10; inactive means the rest.
Give one outcome, nothing more. List: active, inactive

Compound: COc1ccc2c(c1)OC(N)=C(C#N)C2c1ccc(F)cc1 (stereo not given)
Assigned Category: inactive

*Q* Status in this test for COc1ccc(-n2c(-c3ccc(NC(=O)CCCl)cc3)nnc2-c2cc(OC)c(OC)c(OC)c2)cc1 ?
*A* inactive

*Q* # repeat for O=C(Nc1ccc(-n2ccc3c(NC(=O)c4ccccc4)nccc32)cc1)c1cccc(C(F)(F)F)c1
*A* inactive

*Q* # repeat for CC(C)[C@@H]1NC(=O)[C@]2(C)CSC(=N2)c2ccnc(c2)CNC(=O)C[C@@H](/C=C/CCS)OC1=O
*A* inactive

*Q* # repeat for Nc1nc(Nc2ccc(OCc3cccc(F)c3)cc2)c2c(n1)[nH]c1ccc(O)cc12
*A* active

*Q* # repeat for O=[N+]([O-])c1cccc2cc(S(=O)(=O)O)ccc12
*A* inactive

*Q* # repeat for CCCCCCCCN(CCCCCCCC)CC(O)c1cc(-c2ccccc2)nc2ccc(OC)cc12 (stereo not given)
*A* active

*Q* # repeat for CC[C@@]1(O)C(=O)OCc2c1cc1n(c2=O)Cc2c-1nc1ccccc1c2/C=N/OC(C)(C)C
*A* active

*Q* # repeat for CCc1c(C)c2cc3c(c(C)c2oc1=O)OCC(=O)N3
*A* inactive

*Q* # repeat for CCOC(=O)c1[nH]c(-c2ccc(Cl)cc2)cc1-c1cccnc1
*A* active

*Q* # repeat for COc1cc2c(cc1OCCCCC(=O)Nc1ccc(-c3nc4ccccc4s3)cc1)N=C[C@@H]1CCCN1C2=O
*A* active

*Q* # repeat for COc1cc(/C=C/C(=O)c2c(C)n([O-])c3cc(C)c(C)cc3[n+]2=O)cc(OC)c1OC
*A* inactive

*Q* # repeat for c1ccc([Se]CCCN2CCN(CCC[Se]c3ccccc3)CC2)cc1
*A* inactive

*Q* # repeat for O=C(NOC1OC(CO)C(O)C(O)C1O)Nc1ccccc1 (stereo not given)
*A* inactive

*Q* # repeat for c1ccc2c(c1)Oc1cccnc1-n1nccc1-2
*A* inactive

*Q* # repeat for CCn1cc(C(=O)O)c(=O)c2cc(F)c(N3CCN(CC(=O)Nc4ccc(C(C)=O)cc4)CC3)cc21
*A* inactive

*Q* # repeat for CCCC(=O)Oc1ccc(/C(=C(\C)c2ccc(OC)cc2)c2ccc(OCCN3CCCCC3)cc2)cc1
*A* inactive

*Q* # repeat for CC1CCC(C(C)C)C(NN)C1 (stereo not given)
*A* inactive
